TESTED_ON: RB69 Y567A exo^- DNA polymerase (Escherichia phage RB69, UniProt Q38087, D222A/D327A/Y567A)
Sequence (Q38087 whole entry D222A/D327A/Y567A): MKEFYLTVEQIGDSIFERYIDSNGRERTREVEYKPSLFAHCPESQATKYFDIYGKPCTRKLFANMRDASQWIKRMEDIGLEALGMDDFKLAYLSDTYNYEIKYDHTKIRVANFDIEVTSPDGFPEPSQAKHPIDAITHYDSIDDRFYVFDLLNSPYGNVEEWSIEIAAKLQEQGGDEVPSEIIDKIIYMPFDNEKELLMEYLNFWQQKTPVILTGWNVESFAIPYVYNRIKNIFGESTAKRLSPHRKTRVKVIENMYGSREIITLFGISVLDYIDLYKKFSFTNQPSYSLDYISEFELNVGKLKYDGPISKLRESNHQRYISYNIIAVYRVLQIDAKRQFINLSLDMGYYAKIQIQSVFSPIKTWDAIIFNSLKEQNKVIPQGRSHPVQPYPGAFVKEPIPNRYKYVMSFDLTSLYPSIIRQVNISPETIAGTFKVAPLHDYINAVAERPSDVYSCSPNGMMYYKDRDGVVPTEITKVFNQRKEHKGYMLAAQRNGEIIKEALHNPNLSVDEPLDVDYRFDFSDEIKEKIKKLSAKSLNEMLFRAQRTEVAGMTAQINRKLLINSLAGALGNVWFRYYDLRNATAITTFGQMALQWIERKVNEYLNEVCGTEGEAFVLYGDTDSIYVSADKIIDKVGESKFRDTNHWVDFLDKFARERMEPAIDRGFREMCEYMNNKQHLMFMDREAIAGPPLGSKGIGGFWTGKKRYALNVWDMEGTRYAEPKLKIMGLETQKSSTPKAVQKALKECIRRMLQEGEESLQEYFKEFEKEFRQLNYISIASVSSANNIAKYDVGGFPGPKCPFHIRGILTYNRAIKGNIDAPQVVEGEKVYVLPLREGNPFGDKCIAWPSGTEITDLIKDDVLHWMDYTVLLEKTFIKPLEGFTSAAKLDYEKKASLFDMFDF
EXPERIMENTAL_PROTOCOL: Nucleotide binding opposite template 2AP
Parameters: species or system bacteriophage RB69
MEASUREMENT_CONTEXT: read-out: Kd (Table 3); opposite template 2AP; DNA 1; conditions as Table 1
REPORTED_PROPERTY: pKd
Reminder that pKd is minus the log10 of a molar concentration.

Problem: Could you please provide reported pKd for O=c1ccn([C@H]2C[C@H](O)[C@@H](COP(=O)(O)OP(=O)(O)OP(=O)(O)O)O2)c(=O)[nH]1 ? Thanks!
Result: 4.68

Problem: Find the measured pKd of O=c1ccn([C@@H]2O[C@H](COP(=O)(O)OP(=O)(O)OP(=O)(O)O)[C@@H](O)[C@H]2O)c(=O)[nH]1 and report it.
Result: 3.28

====

TESTED_ON: RB69 exo^- DNA polymerase (D222A/D327A, wild type) (Escherichia phage RB69, UniProt Q38087, D222A/D327A)
Sequence (Q38087 whole entry D222A/D327A): as the sequence (Q38087 whole entry D222A/D327A/Y567A) above, with A567Y counted along it
EXPERIMENTAL_PROTOCOL: Nucleotide binding opposite template 2AP
Design: species or system bacteriophage RB69
MEASUREMENT_CONTEXT: read-out: Kdbind; opposite template 2AP; long A+T-rich DNA 1
REPORTED_PROPERTY: pKd
The meaning of pKd here: minus log10 of the concentration in molar units.

Problem: // fetch pKd given entry Cc1cn([C@H]2C[C@H](O)[C@@H](COP(=O)(O)OP(=O)(O)OP(=O)(O)O)O2)c(=O)[nH]c1=O
Result: 4.51

====

TESTED_ON: RB69 Y567A exo^- DNA polymerase (Escherichia phage RB69, UniProt Q38087, D222A/D327A/Y567A)
EXPERIMENTAL_PROTOCOL: Nucleotide binding opposite template 2AP
Set-up: species or system bacteriophage RB69
MEASUREMENT_CONTEXT: read-out: Kdbind; opposite template 2AP; long G+C-rich DNA 2
REPORTED_PROPERTY: Kd (µM)
Number only, in µM; omit the unit.

Problem: Tell us which Kd value is on record for Cc1cn([C@H]2C[C@H](O)[C@@H](COP(=O)(O)OP(=O)(O)OP(=O)(O)O)O2)c(=O)[nH]c1=O
Result: 15.1

====

TESTED_ON: T4 exo^- DNA polymerase
EXPERIMENTAL_PROTOCOL: Nucleotide binding opposite template 2AP
Design: species or system bacteriophage T4
MEASUREMENT_CONTEXT: read-out: Kd (Table 3); opposite template 2AP; DNA 1; conditions as Table 1
REPORTED_PROPERTY: Kd (µM)
Return type: number; implicit unit µM.

Problem: Retrieve Kd measured for O=c1ccn([C@H]2C[C@H](O)[C@@H](COP(=O)(O)OP(=O)(O)OP(=O)(O)O)O2)c(=O)[nH]1 and print it.
Result: 74.1

====

TESTED_ON: RB69 Y567A exo^- DNA polymerase (Escherichia phage RB69, UniProt Q38087, D222A/D327A/Y567A)
Type: biochemical, bacteriophage RB69
MEASUREMENT_CONTEXT: read-out: Kdincorp, app; opposite template 2AP; short G+C-rich DNA 4
REPORTED_PROPERTY: Kd (µM)
Numeric only. Scale: µM

Problem: Name the recorded Kd of the compound listed here: Cc1cn([C@H]2C[C@H](O)[C@@H](COP(=O)(O)O)O2)c(=O)[nH]c1=O
Result: 263

Problem: Please give measured Kd of the following entry: Nc1ccn([C@H]2C[C@H](O)[C@@H](COP(=O)(O)O)O2)c(=O)n1
Result: 361
